# System: CD2F1 mice, L1210 leukemia ip, survival T/C
# experiment.summary: NCI In Vivo Anticancer Drug Screen. Data for tumor model L1210 Leukemia (intraperitoneal) in CD2F1 (CDF1) mice
# protocol.conditions: endpoint: mean survival time; dose: 75.0 mg/kg/injection; schedule: Q01DX001 (ip); vehicle: saline; higher = longer survival
Inconclusive results and toxic doses are left out.
readout.name: T/C

# compound, readout.name, observed
records = [
    ("CCC(c1ccc(O)c(C2CCCCC2)c1)C(CC)c1ccc(OC(=O)c2ccccc2)c(C2CCCCC2)c1 (stereo unspecified)", "T/C", "109 % of control"),
    ("C[n+]1ccc2c(Br)cccc2c1", "T/C", "101 % of control"),
    ("CCCCCCC(C)NCCOC(=O)c1ccccc1 (stereo unspecified)", "T/C", "103 % of control"),
    ("CCOC(=O)c1cc2c(=O)cccnc2o1", "T/C", "93 % of control"),
    ("CC1(CO)C2C=CC(C2)C1(C)CO (stereo unspecified)", "T/C", "105 % of control"),
    ("COc1cc(Cl)c(CC(=O)Cl)cc1OC", "T/C", "105 % of control"),
]

====

Each entry below carries its reported T/C.
# Tested on: CD2F1 mice, L1210 leukemia ip, survival T/C
# experiment.summary: NCI In Vivo Anticancer Drug Screen. Data for tumor model L1210 Leukemia (intraperitoneal) in CD2F1 (CDF1) mice
# protocol.conditions: endpoint: mean survival time; dose: 200.0 mg/kg/injection; schedule: Q04DX002 (ip); vehicle: saline; higher = longer survival
Inconclusive results and toxic doses are left out.

# molecule, T/C
records = [
    ("CCCCN(CCCC)P1(=O)OCCO1", "107 % of control"),
    ("CC1CCC(=O)O1 (configuration not stated)", "98 % of control"),
    ("N#CS.[Co+3].[NH-]CC[NH-].[NH-]CC[NH-].[NH-]CC[SH2+]", "104 % of control"),
    ("O=C(O)CNCNCC(=O)O", "86 % of control"),
    ("CCOC(=O)c1ccc(-c2ccc(C(=O)OCC)o2)o1", "97 % of control"),
    ("CCCCOP(=O)(OCCCC)OC(=C(Cl)Cl)P(=O)(OCCCC)OCCCC", "92 % of control"),
    ("NCCN1CCCC1", "111 % of control"),
]

====

T/C reference
# Tested on: CD2F1 mice, L1210 leukemia ip, survival T/C
# experiment.summary: NCI In Vivo Anticancer Drug Screen. Data for tumor model L1210 Leukemia (intraperitoneal) in CD2F1 (CDF1) mice
# protocol.conditions: endpoint: mean survival time; dose: 50.0 mg/kg/injection; schedule: Q01DX001 (ip); vehicle: saline with Tween-80; higher = longer survival
Inconclusive results and toxic doses are left out.

# compound, T/C
records = [
    ("c1cc2c(cc1-c1nnc(-c3ccc4c(c3)OCO4)nn1)OCO2", "95 % of control"),
    ("O=C1O/C(=C\\c2ccccc2)C(O)=C1c1ccccc1", "98 % of control"),
    ("CC(C)(C)C1=CC(=N/S(=O)(=O)c2ccccc2)/C(N=[N+]=[N-])=C(Cl)C/1=N\\S(=O)(=O)c1ccccc1", "93 % of control"),
    ("CCCCn1c(C)nc2c([N+](=O)[O-])cc(C(F)(F)F)cc21", "95 % of control"),
    ("CC(=O)NC1C(OC(C)=O)OC(COC(c2ccccc2)(c2ccccc2)c2ccccc2)C(O)C1OC(C)=O (stereo not drawn)", "88 % of control"),
    ("CN(C)/C=C1\\Cc2ccccc2C1=O", "92 % of control"),
    ("CCOC(=O)c1ccc(NC(=O)Nc2ccc(Cl)cc2Cl)cc1", "91 % of control"),
    ("c1ccc(C2=C(c3ccccc3)OC(c3ccccc3)=C(c3ccccc3)O2)cc1", "87 % of control"),
    ("COC(=O)C1CSCC1=O (stereo not drawn)", "97 % of control"),
    ("CSc1ccccc1N=Cc1cc(Cl)ccc1O", "96 % of control"),
    ("CCCCCCCCCCCCCCCCCC[N+]1(C)CCSCC1", "104 % of control"),
    ("CC1=CC(=C2C=C(C)C(=O)C(C)=C2)C=C(C)C1=O", "87 % of control"),
    ("CC(=O)NC1C(OC(C)=O)OC(COC(C)=O)C(OC(C)=O)C1OC(C)=O (stereo not drawn)", "101 % of control"),
]

====

# Test system: CD2F1 mice, L1210 leukemia ip, survival T/C
# experiment.summary: NCI In Vivo Anticancer Drug Screen. Data for tumor model L1210 Leukemia (intraperitoneal) in CD2F1 (CDF1) mice
# protocol.conditions: endpoint: mean survival time; dose: 200.0 mg/kg/injection; schedule: Q04DX003 (ip); vehicle: saline with Tween-80; higher = longer survival
Toxic doses and inconclusive results are not listed.
Recorded T/C, one value per entry.

# compound, system, T/C
measured = [
    ("CC(C)CC(NC(=O)c1ccccc1)C(N)=O (stereo unspecified)", "CD2F1 mice, L1210 leukemia ip, survival T/C", "97 % of control"),
    ("O=C(O)C1CC2C=CC1C2 (stereo unspecified)", "CD2F1 mice, L1210 leukemia ip, survival T/C", "96 % of control"),
    ("CNC(=S)NC1CCCCC1", "CD2F1 mice, L1210 leukemia ip, survival T/C", "100 % of control"),
    ("COc1c(C)ccc2c1CCN1C3=C(CCC21)CC1(CC3)OCCO1 (stereo unspecified)", "CD2F1 mice, L1210 leukemia ip, survival T/C", "94 % of control"),
    ("O=[N+]([O-])c1[nH]c(Br)nc1Br", "CD2F1 mice, L1210 leukemia ip, survival T/C", "100 % of control"),
    ("O=C(O)CC(NCc1ccccc1)C(=O)O (stereo unspecified)", "CD2F1 mice, L1210 leukemia ip, survival T/C", "100 % of control"),
    ("O=C(c1ccccc1)C1OC1c1ccccc1 (stereo unspecified)", "CD2F1 mice, L1210 leukemia ip, survival T/C", "98 % of control"),
    ("N#Cc1c(F)c(F)cc(F)c1F", "CD2F1 mice, L1210 leukemia ip, survival T/C", "96 % of control"),
    ("CC1(C)COC(CCc2ccccc2)=N1", "CD2F1 mice, L1210 leukemia ip, survival T/C", "93 % of control"),
    ("COc1ccc(C(=O)CC(C#N)c2ccc(OC)c(OC)c2)cc1OC (stereo unspecified)", "CD2F1 mice, L1210 leukemia ip, survival T/C", "101 % of control"),
    ("O=C(O)/C=C\\C(=O)Nc1ccccc1", "CD2F1 mice, L1210 leukemia ip, survival T/C", "101 % of control"),
    ("O=C(CCCl)OCCCl", "CD2F1 mice, L1210 leukemia ip, survival T/C", "92 % of control"),
    ("O=[N+]([O-])c1ccc(N2CCOCC2)c([N+](=O)[O-])c1", "CD2F1 mice, L1210 leukemia ip, survival T/C", "103 % of control"),
    ("CCOC(=O)c1c(C)csc1NC(C)=O", "CD2F1 mice, L1210 leukemia ip, survival T/C", "98 % of control"),
    ("CCN1CCCC(Nc2nc(Nc3ccc(Cl)c(Cl)c3)nc3ccc(Cl)cc23)C1 (stereo unspecified)", "CD2F1 mice, L1210 leukemia ip, survival T/C", "94 % of control"),
    ("Nc1ccc(S(=O)(=O)N(CCO)CCO)cc1[N+](=O)[O-]", "CD2F1 mice, L1210 leukemia ip, survival T/C", "98 % of control"),
    ("C1CCC2C(C1)CC1CCCCC1C2C1C2CCCCC2CC2CCCCC21 (stereo unspecified)", "CD2F1 mice, L1210 leukemia ip, survival T/C", "100 % of control"),
    ("OCn1c2ccccc2c2ccccc21", "CD2F1 mice, L1210 leukemia ip, survival T/C", "87 % of control"),
    ("CC12CCC(=O)C=C1CCC1C2CCC2(C)C(C(=O)O)CCC12 (stereo unspecified)", "CD2F1 mice, L1210 leukemia ip, survival T/C", "96 % of control"),
    ("O=[N+]([O-])c1ccc(N=Nc2ccccc2)cc1", "CD2F1 mice, L1210 leukemia ip, survival T/C", "92 % of control"),
    ("O=C(C[n+]1csc2ccccc21)c1ccccc1", "CD2F1 mice, L1210 leukemia ip, survival T/C", "106 % of control"),
    ("CC(C)CCCC(C)C1CCC2C3=CCC4CC(O)CCC4(C)C3CCC21C (stereo unspecified)", "CD2F1 mice, L1210 leukemia ip, survival T/C", "91 % of control"),
    ("OC1CCCCC1O (stereo unspecified)", "CD2F1 mice, L1210 leukemia ip, survival T/C", "100 % of control"),
    ("CC1(C)C2C(Br)C3OC(=O)C(C2C(=O)O)C31 (stereo unspecified)", "CD2F1 mice, L1210 leukemia ip, survival T/C", "96 % of control"),
    ("Cc1cc(C)c(/C(O)=C/C(=S)N2CCOCC2)c(C)c1", "CD2F1 mice, L1210 leukemia ip, survival T/C", "98 % of control"),
    ("COc1ccc(O)c(C=O)c1", "CD2F1 mice, L1210 leukemia ip, survival T/C", "110 % of control"),
    ("COC(=O)C1(C)CCCC2(C)C1CCC1(O)C2CC2OC2(C(C)C)C1O (stereo unspecified)", "CD2F1 mice, L1210 leukemia ip, survival T/C", "93 % of control"),
    ("O=C1c2ccccc2C(=O)N1CC/C=C/c1ccc([N+](=O)[O-])cc1Cl", "CD2F1 mice, L1210 leukemia ip, survival T/C", "91 % of control"),
    ("COc1ccc(C(C)C(OC(=O)c2ccc([N+](=O)[O-])cc2)c2ccccc2)cc1 (stereo unspecified)", "CD2F1 mice, L1210 leukemia ip, survival T/C", "97 % of control"),
    ("CCc1ccc(NC(=O)c2cccc(Cl)c2)cc1", "CD2F1 mice, L1210 leukemia ip, survival T/C", "98 % of control"),
    ("CC(CC(=O)O)c1ccc(F)cc1 (stereo unspecified)", "CD2F1 mice, L1210 leukemia ip, survival T/C", "100 % of control"),
    ("Cc1ccc(Cl)cc1NS(=O)(=O)c1cccc([N+](=O)[O-])c1", "CD2F1 mice, L1210 leukemia ip, survival T/C", "106 % of control"),
    ("Cc1ccc(C2(C(=O)O)CC2)cc1", "CD2F1 mice, L1210 leukemia ip, survival T/C", "98 % of control"),
    ("COC(=O)c1ccccc1NC(=O)/C=C/C(=O)O", "CD2F1 mice, L1210 leukemia ip, survival T/C", "95 % of control"),
    ("C(=N/N=C(\\C(=N\\N=C\\c1ccc2c(c1)CCC2)c1ccccc1)c1ccccc1)\\c1ccc2c(c1)CCC2", "CD2F1 mice, L1210 leukemia ip, survival T/C", "89 % of control"),
    ("CC1=C/C(=N\\Nc2ccccc2)C(C(O)(C(F)(F)Cl)C(F)(F)Cl)C(C)(C)C1 (stereo unspecified)", "CD2F1 mice, L1210 leukemia ip, survival T/C", "94 % of control"),
    ("Cc1ccc(-c2nn[nH]n2)cc1[N+](=O)[O-]", "CD2F1 mice, L1210 leukemia ip, survival T/C", "97 % of control"),
    ("COC(=O)c1cccc2c1OCO2", "CD2F1 mice, L1210 leukemia ip, survival T/C", "100 % of control"),
    ("CC(CC(O)(c1ccccc1)c1ccccc1)C(F)(F)F (stereo unspecified)", "CD2F1 mice, L1210 leukemia ip, survival T/C", "96 % of control"),
    ("Fc1cc(F)c(F)c(Oc2c(F)c(F)c(-c3c(F)c(F)c(F)c(F)c3F)c(F)c2F)c1F", "CD2F1 mice, L1210 leukemia ip, survival T/C", "91 % of control"),
    ("CC(=O)C(C(c1ccccc1)C1CCCc2ccccc21)N1CCOCC1 (stereo unspecified)", "CD2F1 mice, L1210 leukemia ip, survival T/C", "100 % of control"),
    ("CCC(=O)OCCn1c2ccccc2c2c(C)c3cnccc3c(C)c21", "CD2F1 mice, L1210 leukemia ip, survival T/C", "107 % of control"),
    ("O=CNc1cccc(Cl)c1", "CD2F1 mice, L1210 leukemia ip, survival T/C", "90 % of control"),
    ("O=C(/C(=N/N(C(=O)c1ccccc1)c1ccccc1)c1ccccc1)c1ccccc1", "CD2F1 mice, L1210 leukemia ip, survival T/C", "88 % of control"),
    ("CN(C)S(=O)(=O)C1(c2ccccc2)CCCC1", "CD2F1 mice, L1210 leukemia ip, survival T/C", "105 % of control"),
    ("CCCCC(OC(=O)c1ccc([N+](=O)[O-])cc1)C(C)[N+](=O)[O-] (stereo unspecified)", "CD2F1 mice, L1210 leukemia ip, survival T/C", "97 % of control"),
    ("CCOC(=O)Nc1ccc(F)cc1C", "CD2F1 mice, L1210 leukemia ip, survival T/C", "97 % of control"),
    ("Cc1ccc(Cl)cc1NC(=O)CCl", "CD2F1 mice, L1210 leukemia ip, survival T/C", "95 % of control"),
    ("O=c1[nH]c(=S)[nH]c(-c2ccccc2)c1CCO", "CD2F1 mice, L1210 leukemia ip, survival T/C", "101 % of control"),
    ("NCCS/C=C(\\Br)C(=O)OCc1ccc(Br)cc1", "CD2F1 mice, L1210 leukemia ip, survival T/C", "98 % of control"),
    ("O=C1c2ccccc2S(=O)(=O)N1CCBr", "CD2F1 mice, L1210 leukemia ip, survival T/C", "106 % of control"),
]
